Tested on: β-Glucosidase derived from A. niger
Experiment: Reactivity toward various isoflavone glycosides (HPLC)
Format: biochemical, Aspergillus niger
Parameters: unit not given here
Conditions: Reaction time 3 h; 55 °C, pH 4.0
Below is a list of entries, each paired with its recorded aglycon value.

{"columns": ["item.smiles", "aglycon"],
 "data": [
  ["O=C(O)CC(=O)OC[C@H]1O[C@@H](Oc2cc(O)c3c(=O)c(-c4ccc(O)cc4)coc3c2)[C@H](O)[C@@H](O)[C@@H]1O", 7],
  ["O=c1c(-c2ccc(O)cc2)coc2cc(O[C@@H]3O[C@H](CO)[C@@H](O)[C@H](O)[C@H]3O)ccc12", 100],
  ["O=c1c(-c2ccc(O)cc2)coc2cc(O[C@@H]3O[C@H](CO)[C@@H](O)[C@H](O)[C@H]3O)cc(O)c12", 100],
  ["COc1cc2c(=O)c(-c3ccc(O)cc3)coc2cc1O[C@@H]1O[C@H](CO)[C@@H](O)[C@H](O)[C@H]1O", 88.3],
  ["COc1cc2c(=O)c(-c3ccc(O)cc3)coc2cc1O[C@@H]1O[C@H](COC(C)=O)[C@@H](O)[C@H](O)[C@H]1O", 1],
  ["CC(=O)OC[C@H]1O[C@@H](Oc2ccc3c(=O)c(-c4ccc(O)cc4)coc3c2)[C@H](O)[C@@H](O)[C@@H]1O", 6.4]
]}
